Test system: Gamma-crystallin C (Homo sapiens), P07315 [G129C]
Sequence (P07315 whole entry G129C): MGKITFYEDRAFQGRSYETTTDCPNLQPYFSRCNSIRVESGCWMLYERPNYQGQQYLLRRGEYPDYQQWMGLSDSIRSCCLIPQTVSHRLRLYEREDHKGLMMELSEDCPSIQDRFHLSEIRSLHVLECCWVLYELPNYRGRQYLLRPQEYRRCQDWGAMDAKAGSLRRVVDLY
Experiment: Inhibition of gamma-crystallin C G129C mutant (unknown origin)-induced intracellular protein aggregation expressed in human HeLa cells at 0.4 uM incubated for 6 to 8 hrs by fluorescence microscopy relative to untreated control
Format: cell-based
The source made the active and inactive calls. No cut-off for these calls is given here.
Answer with one of the outcomes given here: 1 for active, -1 for inactive

Below are worked cases with known answers.
# SMILES_STRUCTURE, CLASS_ASSIGNMENT
records = [
    ("C[C@H](CCCC(C)(C)O)[C@H]1CC[C@@]2(C)C3=C(CC[C@]12C)[C@@]1(C)C[C@@H](F)[C@@H](O)C(C)(C)[C@@H]1CC3", 1),
    ("C[C@H](CCCC(C)(C)O)[C@H]1CC[C@@]2(C)C3=C(CC[C@]12C)[C@@]1(C)CC[C@H](O)C(C)(C)[C@@H]1CC3", 1),
]

Q: Recorded call for C[C@H](CCCC(C)(C)O)[C@H]1CC[C@@]2(C)C3=C(CC[C@]12C)[C@@]1(C)C[C@@H](F)[C@H](O)C(C)(C)[C@@H]1CC3 ?
Result: 1

Q: Can you look up the reported call for C[C@H](CCCC(C)(C)O)[C@H]1CC[C@@]2(C)[C@@]34CC[C@H]5C(C)(C)/C(=N/O)CC[C@]5(C)[C@]3(CC[C@]12C)O4 for me?
Result: -1

Q: Dear colleague, could you share the recorded outcome for C[C@H](CCCC(C)(C)O)[C@H]1CC[C@@]2(C)C3=C(CC[C@]12C)[C@@]1(C)CCC(=O)C(C)(C)[C@@H]1CC3 when you have a moment?
Result: 1

Q: Check the results log: what was the call for C[C@H](CCCC(C)(C)O)[C@H]1CC[C@@]2(C)C3=CC[C@H]4C(C)(C)[C@@H](O)CC[C@]4(C)C3=CC[C@]12C ?
Result: 1
